- test name: solvent given as SMILES
- condition set: in c1ccccc1
Reported values of emission maximum for individual entries
measure: emission maximum (nm)

CCCCN(CCCC)c1ccc2c(c1)C#CC#Cc1cc(C(F)(F)F)ccc1C#Cc1cc(c3cc1C#Cc1ccc(C(F)(F)F)cc1C#CC#Cc1cc(N(CCCC)CCCC)ccc1C#C3)C#C2    503
CCC1=C(C)C(=O)n2c1cc1c(c(C)c(C(=O)OC)n1C)c2=O    447
CCCCCCCC1=C(C)C(=O)n2c1cc1[nH]c(C(=O)OC)c(C)c1c2=O    441
O=C(c1ccc(N(c2ccccc2)c2ccccc2)cc1)[C@H]1[C@H](c2ccc(F)cc2)C[C@](O)(c2ccccn2)C[C@]1(O)c1ccccn1    485

The reported numbers originate from the Deep4Chem optical property database.
